Cited source: PubChem BioAssay (NCI)

# Tested on: HCC-2998 colon
# method_description: NCI tumour cell line growth inhibition, 48 h
reported_metric: TGI

See these solved cases before continuing.
N#Cc1cccc(C=NC23CC4CC(CC(C4)C2)C3)c1 ... > 100 µM
CC(C)C1=CC(=O)[C@@](C)(C2[C@H](O)C[C@@]3(C)[C@@H]4CC=C5[C@@H](CC[C@@H](OC6OCC(O)C(O)C6OC6OC(C)C(O)C(O)C6O)C5(C)C)[C@]4(C)C(=O)C[C@]23C)O1 (stereo partly specified) ... > 100 µM
O=C1CN(c2cccc(Cl)c2)C(=O)CN1NCNN1CC(=O)N(c2cccc(Cl)c2)CC1=O ... > 100 µM

What TGI value was documented for this compound, CCOC(=O)C1(C#N)CC1 ? > 100 µM

Another: CC(Oc1ccccc1)C(=O)NNC(=O)OC(C)(C)C (stereo unspecified) > 100 µM

Another: CCn1c(CCl)nc2c1C(=O)c1ccccc1C2=O 2.9 µM

Another: C/C(=N\O)c1cccc[n+]1Cc1ccccc1 > 100 µM

Another: c1ccc(OCc2nnc3n2N=C(c2ccccc2)CS3)cc1 > 100 µM

Another: CCCCCCNCc1cc(C(C)(C)C)cc(CNCCCCCC)c1O 2.99 µM

Another: Cc1nc2ccccc2nc1N=Nc1ccccc1 > 100 µM

Another: O=C(O)/C=C/c1ccc2c(c1)CC1(Cc3ccccc3C1)C2 > 100 µM

====

Known TGI of a selection of compounds
# Tested on: SW-620 colon
# method_description: NCI tumour cell line growth inhibition, 48 h

C[C@@H](CO)NC(=O)c1cc(-c2ccc(Cl)cc2)nn(-c2cnn(C)c2)c1=O ... > 100 µM
Cn1cc(C2=C(Nc3ccccc3)C(=O)NC2=O)c2ccccc21 ... > 25 µM
CSc1nc(N)c2c(-c3ccccc3)c3c(nc2n1)CCCC3 ... > 100 µM

What TGI value was documented for this compound, N/C1=C/C(=O)NC(=O)c2c(c3ccccc3oc2=O)C1 ? > 100 µM

Another: CC(=O)OC1[C@H](OC(C)=O)C2=C(C)[C@@H](OC(C)=O)C[C@@]2(C(C)(C)O)[C@@H](OC(C)=O)[C@H]2[C@@]1(C)[C@@H](OC(C)=O)CC(OC(C)=O)[C@]21CO1 (stereo partly specified) > 100 µM

Another: NC(=O)CC(N=Cc1nc(-c2ccccc2)oc1O)C(=O)O (stereo unspecified) > 100 µM

====

# Test system: MCF7 breast
# method_description: NCI tumour cell line growth inhibition, 48 h
reported_metric: TGI (µM)
The reply should contain only the number, in µM.

O=C(/C(=C\I)c1ccccc1)c1ccccc1 ... 4.22
COc1cnc2c(c1)C(=O)c1c-2n(CCCN2CCC(O)CC2)c(=O)c2cc(Cl)ccc12 ... 1.54
CC1(C)COC2=C(C1)C(=O)c1ccccc1C2=O ... 2.99
CCn1c(CCl)nc2c1C(=O)c1ccccc1C2=O ... 3.79
CCCCOC1OC(COC(=O)C(C)C)C(OC(=O)C(C)C)C(O)C1OC1OC(C)C(OC(=O)CCC)C(OC(=O)C(C)C)C1O (centres undefined) ... 61.6

Form field - read-out: TGI; system: MCF7 breast; submitted item: Cc1nc2sc(C(=O)c3ccc(Cl)cc3)c(N)c2c(-c2ccccc2Cl)c1C(=O)Nc1ccccc1 53.8

Another: Cc1[nH]c2cc(F)ccc2c1-c1nc2c3cccnc3c3ncccc3c2[nH]1 1.65

Another: COCCOCCOCc1n(Cc2ccc3ccccc3n2)c2ccccc2[n+]1Cc1ccc2ccccc2n1 11.1

====

# Tested on: MOLT-4 leukemia
# method_description: NCI tumour cell line growth inhibition, 48 h
reported_metric: TGI

COCCOCCOCCOc1cccc2c1C(=O)c1cccc(OCCOCCOCCOC)c1C2=O ... > 100 µM
O=c1c2cc3c(cc2c2cccc4c2n1CCC4)OCO3 ... > 100 µM
c1ccc2c(c1)cc1n2CCc2c-1[nH]c1ccccc21 ... > 10 µM

What TGI value was documented for this molecule, COc1c(N2CCN(CN3C(=O)C(=O)c4cc(Cl)ccc43)C(C)C2)c(F)cc2c(=O)c(C(=O)O)cn(C3CC3)c12 (centres undefined) ? > 100 µM

Another: CC(C)=CC(=O)c1[nH]c2ccccc2c1CC(=O)NCCc1cncn1C > 100 µM

Another: C(=Nc1ccc(-c2nc3ccccc3s2)cc1)c1ccc[nH]1 38.8 µM

Another: COC(=O)Nc1nc2ccc(S(=O)(=O)N3CCOCC3)cc2[nH]1 > 100 µM

Another: CCC(C)C(=O)OCC(=O)c1ccc(-c2ccccc2)cc1 (centres undefined) > 100 µM

Another: N#CC(C#N)=C/C=C(\Sc1ccc(F)cc1Cl)c1ccc(Cl)cc1 > 100 µM

Another: O=C(/C=C(\C(=O)c1cccs1)c1cccs1)c1ccc(C(=O)/C=C(\C(=O)c2cccs2)c2cccs2)cc1 > 100 µM

Another: O=C1C(c2c(O)[nH]c3ccc(Br)cc23)=Nc2ccc(Br)cc21 > 100 µM

Another: CC1SC2(CCCCC2)N(NC(=O)c2[nH]c3ccc(Br)cc3c2-c2ccccc2)C1=O (centres undefined) > 100 µM

Another: Cc1c2c(n(CC(c3ccccc3)c3ccccc3)c1C)NN=C(C#N)S2(=O)=O > 100 µM

Another: O=C(CCCN1CCC(C(O)c2ccc(F)cc2)CC1)c1ccc(F)cc1 (centres undefined) 142 µM

Another: Cc1cccc(CC(Cc2ccc(C)cc2C(=O)O)C(=O)O)c1 (centres undefined) > 100 µM

Another: O=[N+]([O-])c1cc2no[n+]([O-])c2cc1N1CCCCC1 4.95 µM

Another: Cc1nc2cc(Nc3nc(Nc4ccc(F)cc4)nc(N4CCOCC4)n3)ccc2n1Cc1ccccc1 8.04 µM

Another: CC12CCC(CC1)C(C)(C)O2 77.2 µM

Another: CC1=Nc2c([nH]c(=S)[nH]c2=O)NC(c2c(Cl)cccc2Cl)C1 (centres undefined) 5.43 µM

====

Known TGI of a selection of molecules
# System: SF-295 CNS
# method_description: NCI tumour cell line growth inhibition, 48 h

See these solved cases before continuing.
OC1COC2CC(Nc3ccccn3)OC12 (centres undefined) ... > 100 µM
CC(C)N(C(=O)C12C3C4C1C1C2C3C41C(N)=O)C(C)C (centres undefined) ... > 100 µM
CC(C)(C)OC(=O)NCc1cccc(N=C=S)c1 ... 40.9 µM
CN1CCN(c2nc(-c3csc(-c4cccs4)n3)cc3ccccc23)CC1 ... 3.39 µM
C[C@H](CCC1SC1(C)C)C1CCC2(C)C3=C(CC[C@]12C)[C@@]1(C)CC[C@H](O)C(C)(C)C1CC3 (some centres undefined) ... > 100 µM
O=C(O)[C@H](CCC[C@H]1C(=O)O[C@H](c2ccccc2)[C@H](c2ccccc2)N1C(=O)OCc1ccccc1)N[C@@H](c1ccccc1)[C@H](O)c1ccccc1 ... 81 µM
CCOc1ccc2c(c1)c(CC(=O)O)cn2C ... > 100 µM
CC1(C)O[C@@H]2C[C@H]3[C@@H]4C[C@H](F)C5=CC(=O)C=C[C@]5(C)[C@@]4(F)[C@@H](O)C[C@]3(C)[C@]2(C(=O)CO)O1 ... > 100 µM

Attention now shifts to the item below.
What TGI value was documented for this molecule, CCN1CCC(CNC(=O)c2ccc(N)cc2)N1CC (centres undefined) ? > 100 µM

====

# Tested on: A549 NSCLC
# method_description: NCI tumour cell line growth inhibition, 48 h
Known TGI of a selection of compounds

NC(Cc1ccc2nc3c4ccccc4c(=O)cc-3oc2c1)C(=O)O (stereo not given) ... > 100 µM
Cc1cc2nc3c(C#N)c4c(c(-c5ccc(Cl)cc5)n3c2cc1C)CCC4 ... > 100 µM
CC(=O)OCC1OC(n2c(S)c(C#N)c(-c3ccccc3)c(C#N)c2=O)C(OC(C)=O)C(OC(C)=O)C1OC(C)=O (stereo not given) ... > 100 µM
CC(C)(NC(=O)OCc1ccccc1)C(=O)OC(=O)C(C)(C)NC(=O)OCc1ccccc1 ... > 100 µM
O=C(O)[C@H](CCC[C@H]1C(=O)O[C@H](c2ccccc2)[C@H](c2ccccc2)N1C(=O)OCc1ccccc1)N[C@@H](c1ccccc1)[C@H](O)c1ccccc1 ... > 100 µM

What TGI value was documented for this compound, COC(=O)Nc1nc2ccc(S(=O)(=O)N3CCOCC3)cc2[nH]1 ? > 100 µM

Another: CCCCCCNCc1cc(C(C)(C)C)cc(CNCCCCCC)c1O 3.08 µM

Another: Nc1nc(N)c2nc3c(nc2n1)CCCCCCCCCC3 > 100 µM

Another: C[C@H](CCC1SC1(C)C)C1CCC2(C)C3=C(CC[C@]12C)[C@@]1(C)CC[C@H](O)C(C)(C)C1CC3 (stereo not given in full) > 100 µM

Another: COC(=O)Cc1cc(=O)[nH]c2c1C(=O)CCC2 > 100 µM

Another: COC(=O)C(C(=O)OC)C(Br)C(Br)C(Br)c1ccccc1 (stereo not given) 32.6 µM

Another: N/C1=C/C(=O)NC(=O)c2c(c3ccccc3oc2=O)C1 > 100 µM
